// values below are reported IC50
# System: human colon cancer cells HCT-116
# Assay details: Inhibition of proliferation of HCT-116 cells (SRB method)
# Type: cell-based
# Condition parameters: HCT-116, 72 h, read-out: HCT-116 IC50* (μM)

[
  {
    "Compound": "NS(=O)(=O)OCC1CC(n2nnc3c(NCCc4ccccc4)ncnc32)CC1O (stereo not shown)",
    "IC50": "> 100 µM"
  },
  {
    "Compound": "NS(=O)(=O)OCC1CC(n2nnc3c(N[C@H]4CCc5ccccc54)ncnc32)CC1O (stereo partly shown)",
    "IC50": "< 0.01 µM"
  },
  {
    "Compound": "COC(=O)[C@H]1C=C[C@@H](Nc2ncnc3c2nnn3C2CC(O)C(COS(N)(=O)=O)C2)C1 (stereo partly shown)",
    "IC50": "> 100 µM"
  }
]

Data request: Quick one: IC50 for NS(=O)(=O)OCC1CC(n2nnc3c(NCCc4cccs4)ncnc32)CC1O (stereo not shown) ?
Data returned: > 100 µM
